# logP listing for each entry below
observable: logP

compound=Cc1ccc2cc3c(ccc4ccccc43)c3c2c1CC3 observable=logP val=6.42
compound=O=C(Nc1ccccc1)NS(=O)(=O)c1ccc(Cl)cc1 observable=logP val=3.61
compound=C[Si](C)(C)Cc1ccccc1 observable=logP val=4.13
compound="O=C(NC(CO)C(O)c1ccc([N+](=O)[O-])cc1)C(F)F (stereo not given)" observable=logP val=0.42
compound=Cc1ccc(Cl)cc1Cl observable=logP val=4.24
compound="O=C(O)C(c1ccc(Cl)cc1)n1cccc1 (stereo not given)" observable=logP val=2.3
compound=O=C(C(=O)c1ccco1)c1ccco1 observable=logP val=1.24
compound=Fc1ccccc1CCl observable=logP val=2.67
compound="COC1C(O)C(C)OC(OC2CCC3(C=O)C(CCC4C3CCC3(C)C(C5=CC(=O)OC5)CCC43O)C2)C1O (stereo not given)" observable=logP val=1.05
compound=COP(=S)(OC)Oc1cc(Cl)c(Br)cc1Cl observable=logP val=5.21
compound=O=C1C=CC(=NBr)C=C1 observable=logP val=1.12
compound=CCC(=O)O[C@]1(C(=O)CO)CC[C@H]2[C@@H]3CCC4=CC(=O)CC[C@]4(C)[C@H]3[C@@H](O)C[C@@]21C observable=logP val=2.7
compound="CC(C)N(CCC(C(N)=O)c1ccc(-c2ccccc2)cc1)C(C)C (stereo not given)" observable=logP val=3.66
compound=CC(=O)c1cccc(NC(=O)N(C)C)c1 observable=logP val=0.95
compound=CCCS observable=logP val=1.81
compound="CCC(=O)OC1(C(=O)CCl)C(C)CC2C3CCC4=CC(=O)C=CC4(C)C3(Cl)C(O)CC21C (stereo not given)" observable=logP val=3.28
compound=CCCCCOC(=O)Nc1ccccc1 observable=logP val=3.8
compound=CNC observable=logP val=-0.38
compound=CN(C)c1cccnn1 observable=logP val=0.29
compound="Cc1ncc([N+](=O)[O-])n1CC(C)O (stereo not given)" observable=logP val=0.22
compound=CCc1cc(NC(C)=O)cc(CC)c1O observable=logP val=1.87
compound=O=C(O)CCCc1c[nH]c2ccccc12 observable=logP val=2.3
compound=Cc1cccc2ccccc12 observable=logP val=3.87
compound=OCCCCCc1ccncc1 observable=logP val=1.39
compound="CCCCC(C#N)(Cn1ccnc1)c1ccccc1 (stereo not given)" observable=logP val=2.94
compound=CCOC(=O)c1ccc(N=NN(C)CCO)cc1 observable=logP val=2.66
compound=NC(=O)c1cccc2[nH]ccc12 observable=logP val=0.66
compound=CCOc1ccc(O)cc1 observable=logP val=1.81
compound=O=NN(CC(F)(F)F)CC(F)(F)F observable=logP val=2.15
compound=NC(=O)CCl observable=logP val=-0.53
compound=O=Cc1ccc2c(c1)OCO2 observable=logP val=1.05
compound=O=C(O)Cc1ccc(C(F)(F)F)cc1 observable=logP val=2.45
compound=COc1cc(CC(=O)O)ccc1OC(C)C observable=logP val=1.75
compound=COc1ccccc1N observable=logP val=1.18
compound=COc1nccnc1NS(=O)(=O)c1ccc(N)cc1 observable=logP val=0.7
compound="CC(C#N)c1ncc([N+](=O)[O-])[nH]1 (stereo not given)" observable=logP val=-0.07
compound=O=C1c2ccccc2Cc2ccccc21 observable=logP val=3.66
compound=CC(C)C(C)C observable=logP val=3.42
compound=O=C1CN=C(c2ccccc2)c2cc(Cl)ccc2N1CC1CC1 observable=logP val=3.73
compound=CCCNCCC observable=logP val=1.67
compound=CCCOC=O observable=logP val=0.83
compound=CC(=O)Sc1ccccc1 observable=logP val=2.23
compound=BrCCBr observable=logP val=1.96
compound="CC(C)NCC(O)c1ccc(Cl)c(Cl)c1 (stereo not given)" observable=logP val=3.32
compound=c1ccc(Nc2ccccc2)cc1 observable=logP val=3.5
compound=CCCCC1C(=O)NC(=O)NC1=O observable=logP val=0.77
compound=CN(C(=S)c1ccccc1)c1ccccc1 observable=logP val=3.12
compound="Cl[C@H]1[C@H](Cl)[C@@H](Cl)[C@@H](Cl)[C@H](Cl)[C@H]1Cl (racemic)" observable=logP val=3.72
compound=C=C(CC(=O)c1ccc(-c2ccccc2Cl)cc1)C(=O)O observable=logP val=3.32
compound=CCC1(CCC(C)C)C(=O)NC(=S)NC1=O observable=logP val=2.98
compound="CCC1(c2ccccc2)C(=O)NC(=O)N(C(C)C)C1=O (stereo not given)" observable=logP val=2.58
compound="CC(O)CCC(=O)c1ccoc1 (stereo not given)" observable=logP val=0.84
compound=N#Cc1c2ccccc2cc2ccccc12 observable=logP val=4.26
compound="CSCS(=O)CC(C)NC(=O)C=Cc1c(C)[nH]c(=O)[nH]c1=O (stereo not given)" observable=logP val=-0.7
compound="CCOC(=O)C(SP(=S)(OC)OC)c1ccccc1 (stereo not given)" observable=logP val=3.69
compound=O=C(Cn1cnc([N+](=O)[O-])n1)N1CCOCC1 observable=logP val=-0.96
compound=O=C(O)c1cccc(O)c1 observable=logP val=1.5
compound=CNC(=O)Oc1ccc2ccccc2c1 observable=logP val=2.56
compound=Cc1ccc(OC(=O)N(C)C)cc1 observable=logP val=2.03
compound=CC(=O)CNc1ccccc1C(=O)O observable=logP val=1.85

Entry source: the OPERA property sets (Mansouri et al. 2018)
